# Tested Target: T1, NHERF3_1, Q5T2W1
# T1 sequence (Q5T2W1 4-100, limits assumed, looked up): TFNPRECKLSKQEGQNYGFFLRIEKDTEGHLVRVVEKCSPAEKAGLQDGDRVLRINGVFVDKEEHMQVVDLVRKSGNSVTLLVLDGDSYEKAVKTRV
# Protocol Details: holdup assay
# Design: key: below the threshold = too weak to quantify, mostly under pKd 3.1 to 4
# Condition Label: plain residues with an end cap or a label only (N-terminal biotin on a linker: ado-ado)
Measured Metric: pKd

Check out these entries, answers already filled in.
>>> df
                        binder  measured_metric               result
0    LKVPPEERLI [CRB2, Q5IJ48]              pKd  below the threshold
1  EALLQMESVA [CAVIN3, Q969G5]              pKd  below the threshold
2   QGLAERISVL [PRKD2, Q9BZL6]              pKd                 4.28
3    QKNRKAQEDL [CES3, Q6UWW8]              pKd  below the threshold
4   PPYRHRNTVV [ERBB4, Q15303]              pKd  below the threshold

Dear colleague, could you send me pKd for each of the items below? Thanks.
1. TLPRKRMSSI [GPRC6A, Q5T6X5]
2. SGSLKLMTTV [DACT1, Q9NYF0]
3. VNKSKLLTDV [KCNA1, Q09470]
4. SAKVRTVTSV [RASL11B, Q9BPW5]
5. SNAGNTATKA [NOSTRIN, Q8IVI9]
6. GQEEQVTTRL [TRPC5, Q9UL62]

["below the threshold", "below the threshold", "below the threshold", "below the threshold", "below the threshold", 5.17]

For every record below, what is its pKd?
1. LGRSTPQSEV [DGKH, Q86XP1]
2. PAPSSGKDYV [CLDN1, O95832]

["below the threshold", 4.08]

State the recorded pKd for every item in the following list.
1. QGPVETESVV [SLC45A4, Q5BKX6]
2. VYPNAKVELV [PDLIM4_iso2, P50479;P50479-1]
3. YYKRPVQEWV [MMP24, Q9Y5R2]

[4.01, "below the threshold", 4.24]
